# assayed system: T1, δ-opioid receptor (rat (endogenous in rat brain), UniProt P33533 1-372)
# T1 construct: δ-opioid receptor, rat (Wistar), endogenous in brain membrane homogenate; defined by displacement of [^3H]Ile^5,6Delt II; In membranes, not on intact cells; also called DOR; source: endogenous, rat brain membrane homogenate
# T1 sequence (P33533 whole entry, stated change not applied): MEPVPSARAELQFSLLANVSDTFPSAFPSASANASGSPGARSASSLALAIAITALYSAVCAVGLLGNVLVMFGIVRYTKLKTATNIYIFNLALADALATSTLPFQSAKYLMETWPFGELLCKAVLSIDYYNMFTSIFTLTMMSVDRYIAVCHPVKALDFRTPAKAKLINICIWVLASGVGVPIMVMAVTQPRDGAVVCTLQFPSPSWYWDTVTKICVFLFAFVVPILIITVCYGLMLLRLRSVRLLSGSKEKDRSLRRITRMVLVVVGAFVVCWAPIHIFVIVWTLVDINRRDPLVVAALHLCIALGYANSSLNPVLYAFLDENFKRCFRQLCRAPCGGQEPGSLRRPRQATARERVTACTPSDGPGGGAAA
# assay comment: radioligand binding
# conditions: one partner purified
Where no end group is shown, it is not given here. [ ]: non-standard residue; d: D form. The star is where a group is joined. Kyn = Nc1ccccc1C(=O)C[C@H](N)C(=O)O; NMeF = CN[C@@H](Cc1ccccc1)C(=O)O; NHCH2CH2OH = OCCN*
Below, each entry is listed with its recorded Ki.
assay metric: Ki (nM)

{"binder": "Y[dA]GF[Kyn]-OMe [Peptide K4]", "assay metric": "Ki", "assay result": 31.2}
{"binder": "Y[dA]GF[Kyn]-NH2 [Peptide K6]", "assay metric": "Ki", "assay result": 32.5}
{"binder": "YPF[Kyn]-NH2 (N-terminus assumed; SMILES NC(=O)[C@H](CC(=O)c1ccccc1N)NC(=O)[C@H](Cc1ccccc1)NC(=O)[C@@H]1CCCN1C(=O)[C@@H](N)Cc1ccc(O)cc1) [Peptide K3]", "assay metric": "Ki", "assay result": 159}
{"binder": "Y[dA]G[NMeF][NHCH2CH2OH]-{kynurenic acid (ester on OH)} (the order of couplings in Scheme 1 (ethanolamine-kyna ester, Boc-N-Me-Phe, Boc-Gly, Boc-DAla, Boc-Tyr) agrees; the drawn structure is in Scheme 1; also called kyna-containing peptide; source: synthetic peptide (solution phase synthesis, RP-HPLC purified, TFA salt)) [Peptide KA1]", "assay metric": "Ki", "assay result": 555}
{"binder": "Y[dA]GF[Kyn]-OH [Peptide K5]", "assay metric": "Ki", "assay result": 94.4}
